target: T1, human CD3 expressed on cells (human, UniProt P07766 23-207; P04234 22-171; P09693 23-182); assay: flow cytometry, 25 nM
T1 construct: whole, on cells; CD3 complex on Jurkat cells and on human primary T cells
T1 sequence (P07766 23-207, chain 1 of 3): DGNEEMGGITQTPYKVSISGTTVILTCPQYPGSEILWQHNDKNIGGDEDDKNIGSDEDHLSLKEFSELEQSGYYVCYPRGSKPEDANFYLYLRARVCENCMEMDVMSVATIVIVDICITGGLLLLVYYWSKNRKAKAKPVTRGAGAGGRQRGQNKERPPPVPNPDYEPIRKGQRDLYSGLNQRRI
T1 sequence (P04234 22-171, chain 2 of 3): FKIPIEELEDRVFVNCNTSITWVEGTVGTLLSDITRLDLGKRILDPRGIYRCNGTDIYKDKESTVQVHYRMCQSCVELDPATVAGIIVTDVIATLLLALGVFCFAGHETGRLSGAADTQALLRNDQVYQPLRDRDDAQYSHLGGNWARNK
T1 sequence (P09693 23-182, chain 3 of 3): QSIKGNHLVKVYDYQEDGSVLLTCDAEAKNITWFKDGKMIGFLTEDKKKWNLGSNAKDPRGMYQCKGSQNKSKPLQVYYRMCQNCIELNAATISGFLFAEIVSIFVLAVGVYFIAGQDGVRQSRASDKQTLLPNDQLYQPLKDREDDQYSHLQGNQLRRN
Endpoint Label: Jurkat Cell Binding (FOI)

[[record]]
binder = "mAb 86 (antibody, V domains shown) VH: QVQLAESGGGVVQPGRSLRLSCEASGFTFSGYGMHWVRQAPGKGLDWVAIIYYDGKNKYYADSVKGRFTISRDNSKNTLYLQMNSLRAEDTAVYYCARGGGYNWFDPWGQGTLVTVSS VL: DIQMTQSPSSLSASVGDRVTITCRPSQTISKYLNWYQQKPGKAPKLLIYAASSLQSGVPSRFSGSGSGTDFTLTISSLQPEDFATYYCQQSYITPITFGRGTRLEIK"
endpoint_label = "Jurkat Cell Binding (FOI)"
reported = "175 FOI"

[[record]]
binder = "mAb 169 (antibody, V domains shown) VH: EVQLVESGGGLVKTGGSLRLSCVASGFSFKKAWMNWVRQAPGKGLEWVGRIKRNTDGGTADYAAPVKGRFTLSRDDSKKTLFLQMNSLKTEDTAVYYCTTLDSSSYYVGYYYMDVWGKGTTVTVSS VL: DIQMTQSPSSVSASVGDRVIITCRASQDINNWLAWYQQKPGKAPKLLIYTASSLQSGVPSRFSGSGSGTDFILTIGSLQPEDFATYYCQQAHSLPITFGQGTRLEIK"
endpoint_label = "Jurkat Cell Binding (FOI)"
reported = "173 FOI"

[[record]]
binder = "mAb 42 (antibody, V domains shown) VH: QAQLVQSGSELKKPGASVKVSCKASGYTFTKHSMNWVRQAPGQGLEWMGWINTNTGNPTYAQGFTGRFVFSLDTSVTTAYLQISSLKAEDTAVYYCAREGDYDFWSGFFNFDYWGQGTLVTVSS VL: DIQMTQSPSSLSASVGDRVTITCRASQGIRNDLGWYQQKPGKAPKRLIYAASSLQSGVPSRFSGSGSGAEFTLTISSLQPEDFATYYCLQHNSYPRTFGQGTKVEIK"
endpoint_label = "Jurkat Cell Binding (FOI)"
reported = "111 FOI"


The reported numbers originate from patent US20230295310A1.
